- Tested on: Meloidogyne hapla J2
- Protocol Notes: proportion of mobile M. hapla J2 relative to DMSO control (fraction of DMSO control); higher = more viable, less nematicidal, active = 0.7 or less
- Test Parameters: 60 µM; 5 days; temperature: 20 °C
Outcome codes: 1 (yes) = active, 0 (no) = inactive

1. COc1ccc(-c2noc(-c3ccc(Br)cc3)n2)cc1
0 (no)
2. Cc1ccccc1-c1noc(-c2ccccc2C(=O)NCc2ccccc2)n1
0 (no)
3. Cc1ccc(C)c(OCc2nc(-c3cccnc3)no2)c1
0 (no)
4. COc1ccc(CCC(=O)Nc2ccc(-c3noc(-c4ccccc4C)n3)cc2)cc1
0 (no)
5. COc1ccc(-c2nnc(SCC(=O)Nc3ccc(Br)cc3C(C)C)o2)cc1
0 (no)
6. Clc1ccc(SCc2nc(-c3cccnc3)no2)cc1
0 (no)
7. COc1ccc(OC(C)c2nc(-c3cccnc3)no2)cc1 (stereo unspecified)
0 (no)
8. CC(C)C(=O)Nc1ccccc1-c1nc(-c2ccccn2)no1
0 (no)
9. Clc1ccccc1OCc1nc(-c2cccs2)no1
0 (no)
10. c1ccc2cc(-c3nc(-c4ccncc4)no3)ccc2c1
0 (no)
11. Clc1ccc(CSc2nnc(-c3ccccc3)o2)c(Cl)c1
0 (no)
12. CC(C)Oc1ccc(-c2nc(-c3ccccn3)no2)cc1
0 (no)
13. c1coc(-c2nnc(-c3ccco3)o2)c1
0 (no)
14. Cc1ccccc1CSc1nnc(-c2ccco2)o1
1 (yes)
15. Cc1ccc(-c2noc(-c3ccccc3C(=O)N3CCC(C)CC3)n2)cc1
0 (no)
16. Fc1ccc(-c2nc(-c3ccc(Cl)cc3)no2)cc1
0 (no)
17. COc1ccc(-c2noc(COc3ccc(Br)c(C)c3)n2)cc1
0 (no)
18. COc1ccc(-c2nc(C3CCCCC3)no2)cc1
0 (no)
19. Cc1ccccc1CSc1nnc(-c2ccccc2Cl)o1
0 (no)
20. Cc1cc(C)cc(OCc2nc(-c3ccccc3Cl)no2)c1
0 (no)
21. Cc1ccc(OCc2nc(-c3ccc(Cl)cc3)no2)cc1
0 (no)
22. CCOc1ccccc1-c1nc(-c2ccc(Br)cc2)no1
0 (no)
23. O=C(CSc1nnc(-c2ccccc2Cl)o1)Nc1ccc(F)cc1
0 (no)
24. COc1cccc(-c2noc(COc3cc(C)ccc3C)n2)c1
0 (no)
25. c1cncc(-c2noc(COc3cccc4ccccc34)n2)c1
0 (no)
26. CCCC(=O)Nc1ccccc1-c1nc(-c2ccncc2)no1
0 (no)
